Origin of the recorded values: patent US12129308

# system.under.test: activated human MMP13 (human, UniProt P45452 104-471)
# experiment: cell-based or functional assay
measured.metric: IC50, human collagenolytic assay (nM)

Illustrative cases are given below, each with its answer.
binder="C0101PMP517A01 (VHH, Profile 2 Nanobody; also called C0101517A01; C010100087 (parental)) VHH: DVQLVESGGGLVQPGGSLRLSCAASGRTFSSYAMGWFRQAPGKEREFVAAISWSGGSTYYADSVKGRFTISRDNSKNTVYLQMNSLRPEDTAVYYCTAALAVYGPNRYRYGPVGEYNYWGQGTLVTVSS" unit_abbreviation=nM recorded_result=2.3
binder="C0101PMP062C02 (VHH, Profile 2 Nanobody; also called C0101062C02) VHH: EVQLVESGGALVRPGGSLRLSCAASGFAFSAAYMSWVRQAPGRGLEWVSSISDDGSKTYYADSVKGRFTISRDNAKNTVYLQMNNLKPDDTAVYYCNTGYGATTTRPGRYWGQGTQVTVSS" unit_abbreviation=nM recorded_result=1.4

a = C0101PMP516G08 (VHH, Profile 2 Nanobody; also called C0101516G08) VHH: DVQLVESGGGLVQPGGSLRLSCAGSGSIFRINVMAWYRQAPGKQRELVAAITSGGTTNYADSVKGRFTISRDNSKNTVYLQMNSLRPEDTAVYYCYADIGWPYVLDYDFWGQGTLVTVSS
b = C0101PMP040E09 (VHH, Profile 1 Nanobody; also called C0101040E09) VHH: EVQLVESGGGSVQAGGSLRLSCAASGSTFSRYSMNWYRQAPGKQREFVAGISVGRITNYAVSVRGRFTISRDNAEGTGYLQMNSLKPEDTAVYYCNAGGLQGYWGLGTQVTVSS
[ask] Sort a and b by IC50, human collagenolytic assay descending and give the first. Return value: the label identifying the chosen record.
[reply] b
